- PROTOCOL_TEXT: folding enthalpy; higher = less favourable; fluorescence melt of hairpins on a sequencing array, two-state fit
- CONDITION_DESCRIPTION: sodium 0.088 M
OBSERVATION_TYPE: folding enthalpy

Look over these answered cases.
# SEQUENCE_CODE, MEASURED
records = [
    ("GTGCCCGGAAACGAGCAC ((((.((....)).))))", "-41.2 kcal/mol"),
    ("CGTTCGGAAACGAGTACG ((((((....)))..)))", "-18.8 kcal/mol"),
    ("CCGATGAAAATCGG (((((....)))))", "-21.4 kcal/mol"),
    ("GGCAGCGGAAACACCGCC (((.(.(....).).)))", "-11.1 kcal/mol"),
    ("GCAACTCCGAAAGGATGC (((..(((....))))))", "-19.8 kcal/mol"),
    ("GCGTCGATACGC ((((....))))", "-19.2 kcal/mol"),
]

folding enthalpy for GTACTGGGAAACCAGTGC (.(((((....))))).) ? -22.6 kcal/mol

// folding enthalpy lookup, key: GGCCTGCGAAAGCAAGCC (((.(((....))).))) -30.1 kcal/mol

// returns reported folding enthalpy for input GTAGACGGAAACGTCTGC (.(((((....))))).) -24.6 kcal/mol

Would you mind telling me what folding enthalpy value was observed for GATCGGCACTCCGATC ((((((....)))))) ? -40.5 kcal/mol

Request the reported folding enthalpy associated with GGTGCAGGAAACTGCGTC (..((((....))))..) -10.3 kcal/mol
